experimental system: HA of ca A/New Caledonia/20/99 (H1N1) virus (influenza A virus)
test method notes: cell-based or functional assay
A collection of binders and their measured Neutralization IC50, H1-Ncal99

binder	Neutralization IC50, H1-Ncal99 [µg/mL]
Antibody 10 (antibody, V domains shown) VH: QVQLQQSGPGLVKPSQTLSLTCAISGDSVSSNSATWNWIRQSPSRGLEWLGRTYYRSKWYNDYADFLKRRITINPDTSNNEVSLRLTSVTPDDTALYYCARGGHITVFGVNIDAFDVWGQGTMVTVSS VL: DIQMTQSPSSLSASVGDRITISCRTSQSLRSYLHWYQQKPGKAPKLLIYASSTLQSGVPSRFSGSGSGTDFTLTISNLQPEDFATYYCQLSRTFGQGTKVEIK	1.26
Antibody 6 (antibody, V domains shown) VH: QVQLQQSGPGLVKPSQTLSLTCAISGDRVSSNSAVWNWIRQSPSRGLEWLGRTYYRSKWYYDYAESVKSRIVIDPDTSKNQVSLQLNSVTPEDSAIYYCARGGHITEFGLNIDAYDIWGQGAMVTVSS VL: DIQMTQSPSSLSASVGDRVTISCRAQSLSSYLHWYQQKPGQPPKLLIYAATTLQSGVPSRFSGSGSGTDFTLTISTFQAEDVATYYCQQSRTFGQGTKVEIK	3
Antibody 8 (antibody, V domains shown) VH: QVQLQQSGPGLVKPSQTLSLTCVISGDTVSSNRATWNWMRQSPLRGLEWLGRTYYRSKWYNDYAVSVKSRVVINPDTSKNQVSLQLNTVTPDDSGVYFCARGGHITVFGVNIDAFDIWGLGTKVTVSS VL: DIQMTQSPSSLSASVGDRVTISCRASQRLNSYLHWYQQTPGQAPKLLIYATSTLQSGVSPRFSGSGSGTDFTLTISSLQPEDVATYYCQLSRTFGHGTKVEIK	2.06
Antibody 5 (antibody, V domains shown) VH: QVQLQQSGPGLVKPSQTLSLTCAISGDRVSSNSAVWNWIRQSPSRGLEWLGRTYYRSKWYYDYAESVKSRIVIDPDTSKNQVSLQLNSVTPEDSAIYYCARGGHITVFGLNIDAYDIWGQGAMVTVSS VL: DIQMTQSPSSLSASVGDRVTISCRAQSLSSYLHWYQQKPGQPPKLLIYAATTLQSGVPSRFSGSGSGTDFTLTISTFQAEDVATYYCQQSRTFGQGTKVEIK	0.85
